All values here come from patent US20260083865A1.

Overview of reported IC50 across a group of molecules:
- System: PSMA-expressing C4-2 cells (Homo sapiens, UniProt Q04609)
- Construct: PSMA-expressing C4-2 cells (ATCC, Cat. No. CRL-3314) were cultured in RPMI-1640; host or cells: C4-2 cells
- Sequence (Q04609 whole entry): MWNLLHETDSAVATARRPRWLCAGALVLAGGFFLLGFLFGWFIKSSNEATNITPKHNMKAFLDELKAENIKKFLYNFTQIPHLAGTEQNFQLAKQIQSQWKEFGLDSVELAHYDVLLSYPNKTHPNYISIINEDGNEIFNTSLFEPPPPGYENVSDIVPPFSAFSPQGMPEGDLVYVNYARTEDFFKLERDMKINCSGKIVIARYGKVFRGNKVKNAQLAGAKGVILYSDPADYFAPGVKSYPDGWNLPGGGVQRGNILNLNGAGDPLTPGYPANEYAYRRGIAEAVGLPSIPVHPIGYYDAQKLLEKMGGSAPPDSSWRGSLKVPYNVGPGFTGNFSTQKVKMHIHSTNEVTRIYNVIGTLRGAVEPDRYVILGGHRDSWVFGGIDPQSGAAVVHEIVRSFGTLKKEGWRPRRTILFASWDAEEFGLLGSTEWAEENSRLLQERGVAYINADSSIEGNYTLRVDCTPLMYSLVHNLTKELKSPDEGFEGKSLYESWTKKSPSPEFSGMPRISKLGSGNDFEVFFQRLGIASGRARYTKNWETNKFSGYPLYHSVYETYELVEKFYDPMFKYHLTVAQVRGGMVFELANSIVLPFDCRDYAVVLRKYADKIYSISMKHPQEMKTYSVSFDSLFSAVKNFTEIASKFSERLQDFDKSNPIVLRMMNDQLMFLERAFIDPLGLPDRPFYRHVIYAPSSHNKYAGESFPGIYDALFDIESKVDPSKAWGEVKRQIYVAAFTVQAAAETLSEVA
- Experiment notes: FACS binding assay (competition with 50 nM PSM-0183)
- Applied conditions: pIC50 category of FACS binding, C4-2 cells; read-out: pIC50 [C4-2] CAT (converted)
- Description: In order to determine binding of compounds according to the present invention to PSMA-expressing cells, a FACS binding assay was established. PSMA-expressing C4-2 cells (ATCC, Cat. No. CRL-3314) were cultured in RPMI-1640 (Pan Biotech, Cat. No. P04-18050) including 10% fetal calf serum (Biochrom) and 100 U/ml penicillin and 100 μg/mL streptomycin (Sigma, Cat. No. P0781). […]
Numbered stars: 1 amine (or outer) side, 2 acyl side, 3 side chain; on linkers, the order of the positions; unused ones are H or OH. Bridge positions count the residues as written; N and C are the ends. Square brackets hold non-standard residues; d marks the D form. Peptide text beside a SMILES is read from it. * marks the point of attachment. DOTA = O=C(O)CN1CCN(CC(=O)O)CCN(CC(=O)*)CCN(CC(=O)O)CC1; Phe(4-Cl) = N[C@@H](Cc1ccc(Cl)cc1)C(=O)O; Arg(Me) = CNC(=N)NCCC[C@H](N)C(=O)O; X1 = O=C(CC1CCN([*:1])CC1)[*:2]; Lys(Me) = CNCCCC[C@H](N)C(=O)O; Thr(ol) = C[C@@H](O)[C@H](N)CO; Tle = CC(C)(C)[C@H](N)C(=O)O; Aib = CC(C)(N)C(=O)O
Readout: IC50

Molecule	Result value
CNCCCC[C@@H]1NC(=O)[C@@H](NC(=O)[C@H](Cc2ccc(Cl)cc2)NC(=O)C(C)(C)NC(=O)[C@@H](NC(=O)CC2CCN(C(=O)CN3CCN(CC(=O)O)CCN(CC(=O)O)CCN(CC(=O)O)CC3)CC2)C(C)(C)C)CSSC[C@@H](C(=O)N[C@H](C(=O)N[C@H](C(N)=O)[C@@H](C)O)C(C)(C)C)NC(=O)[C@H](CC(N)=O)NC(=O)C(C)(C)NC(=O)[C@H](CCCNC(=N)NC)NC1=O [PSM-0538] ({DOTA}-[X1][Tle][Aib][Phe(4-Cl)]C[Lys(Me)][Arg(Me)][Aib]NC[Tle]T-NH2; disulfide 5-10)	200 to 1260 nM
CC(=O)N[C@H](C(=O)NC(C)(C)C(=O)N[C@@H](Cc1ccc(Cl)cc1)C(=O)N[C@H]1CSSC[C@@H](C(=O)N[C@H](C(=O)N[C@H](CO)[C@@H](C)O)C(C)(C)C)NC(=O)[C@H](CC(N)=O)NC(=O)C(C)(C)NC(=O)[C@H](CCCNC(=N)N)NC(=O)[C@H](CCCCN)NC1=O)[C@@H](C)O [PSM-0554] (Ac-T[Aib][Phe(4-Cl)]CKR[Aib]NC[Tle][Thr(ol)]; disulfide 4-9)	< 200 nM
